// pIC50 lookup, one value per entry
System: PSN1 pancreatic adenocarcinoma cells
protocol description: cell culture cytotoxicity assay, PSN1
Type: cell-based
condition description: Homo sapiens, mean of three independent experiments, read-out: Toxic-IC50 PSN1
pIC50: −log10 of the molar value.
measurement type: pIC50

compound: CCCCCCCCCCCCCC#CC(=O)O
test result: 4.10
//
compound: CCCCCCCCCCCCCCCC#CC(=O)O
test result: 3.74
//
compound: Cc1ccc2c(c1/C=C/C=C/C(=O)O)C(C)CC(C)C2 (stereo not drawn)
test result: 4.05
//
compound: CCCCCCCC/C=C\CCCCCCCC(=O)O
test result: 4.10
//
compound: CC1CC(C)C2C(C=CC(C)C2C=CC=CC(=O)O)C1 (stereo not drawn)
test result: 3.74
//
compound: CCCCC/C=C\C/C=C\CCCCCCCC(=O)O
test result: 4.05
